# experimental details: protein stability index of a GFP-peptide fusion (GPS, HEK-293T) (PSI 1-6); higher = more stable;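 note: 24-mer peptide tiles fused after GFP, lentivirally expressed, FACS-sorted into six equal bins by GFP/DsRed ratio, decoded by Illumina sequencing, PSI is the read-weighted mean bin number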
# details: treatment: DMSO; c terminus: a fixed tail appended
Each entry gets not satisfied if its protein stability index stays under 4, and satisfied if its protein stability index is 4 or above.

A selection of reference data follows.
chain sequence	category label
PDLTQAPSSLMETLEQHLNTLEGK [SNAP91]	satisfied
ELADARRALDDTARERAKLQIELG [LMNB1]	satisfied
TLHNAQTQEPIFTFTASFSGKVFP [TRIM15]	not satisfied
TLSFIVDGQYMGVAFRGLKGKKLY [SPSB1]	not satisfied
FSGWISALVVPKGNTAVSVLMLLV [SCAMP3]	not satisfied
PPDLGAQRRHGWNPKDCSENIEVK [SPSB2]	satisfied
PRTRARLGANEVLLVVGGFGSQQS [KLHL12]	not satisfied
KPGRKTNQLQYMQNVVVKTLWKHQ [BRD3]	not satisfied
GGLNTETNEKALEAVFGKYGRIVE [RBMX]	not satisfied
SCKADVVELLLSHADCDRRSRIEA [FEM1B]	not satisfied

Shifting focus to the sequence that follows.
INPUT: Given the entry VCQALAQVDGGANFSVDRWERKEG [CPOX] , answer whether its protein stability index meets or surpasses 4.
OUTPUT: satisfied

====

# experimental details: protein stability index of a GFP-peptide fusion (GPS, HEK-293T) (PSI 1-6); higher = more stable
# details: treatment: MLN4924 1 uM, 8 h; c terminus: a fixed tail appended
Could you label it satisfied if measured protein stability index is 3 or higher, and not satisfied otherwise?

chain sequence	category label
NRVFSLQDLCCRAIVSCTPVHLID [RAB40C]	not satisfied
FIENNVSKLSLLLNDISRKSEGLS [TRIP13]	not satisfied

INPUT: Identify whether the reported protein stability index of the following sequence is 3 or greater: AARSGDAAANKLFHYIPGTDILDL [PLEKHN1]
OUTPUT: satisfied

INPUT: # bool: protein stability index of ERSLRLQARYHDTPYKPPAGRAAA [MYORG] >= 3
OUTPUT: satisfied

INPUT: Answer whether protein stability index of GCLAEAVSVIQSIPIFNETGRFSF [HACD3] is greater than or equal to 3.
OUTPUT: not satisfied

INPUT: Could you please find out whether LKMKEREEAWVKIENLAKANPQYT [PPP2R5C] has protein stability index that meets 3 or exceeds it?
OUTPUT: satisfied

INPUT: Given the entry WELREKQQLAAEPVPTGFFNMWGF [WDR41] , answer whether its protein stability index meets or surpasses 3.
OUTPUT: not satisfied

INPUT: Reported protein stability index reaches at least 3 for RMRLFGQRCQKCSWSQYEMPEFSS [RTP4] ?
OUTPUT: not satisfied

====

Listing of entries alongside the reported protein stability index.
# experimental details: protein stability index of a GFP-peptide fusion (GPS, HEK-293T) (PSI 1-6); higher = more stable
# details: treatment: MLN4924 1 uM, 8 h; c terminus: a fixed tail appended
Could you keep your reply to the number by itself?

chain sequence	recorded value
CCCCYQSKSLMTSVPMNGTSIQWK [EDNRA]	2.39
KVEFPEARIYEETLNILLYEAQDG [KCTD10]	2.94
DRGGWGISPRGAGYTFGQDISETF [PPP2CA]	3.3

INPUT: Entry under review: RGTPPRRHSFRKHLYLLRGLPGSG [N4BP2L1] . Reported protein stability index?
OUTPUT: 2.94

====

# experimental details: protein stability index of a GFP-peptide fusion (GPS, HEK-293T) (PSI 1-6); higher = more stable
# details: treatment: MLN4924 1 uM, 8 h; c terminus: a fixed tail appended
Decide by protein stability index: equal to or exceeding 3 means criterion met, less means criterion not met.

These recorded examples may help you get a feel for the data.
chain sequence	category label
QSGCLYRLRALGERHTMDLTVEGF [TMEM120A]	criterion not met
LESYEDIHGTLHLERLAYLHARLR [PRAME]	criterion not met
KPPMMPQAQPAIPRPNRLFLRQLR [C2CD2L]	criterion met
AWMLCKLLDKAGVPPGVVNIVFGT [ALDH8A1]	criterion not met
ERAPTATFHDSKHNIVHVHFDATR [WDFY2]	criterion met
KFQLNKYTGEIKISENLDYEETGF [PCDHGA10]	criterion met

INPUT: // inclusive: protein stability index at least 3? input: MEGQRQESHATLTLAQAHFNNGEY [TTC32]
OUTPUT: criterion met

INPUT: Is reported protein stability index greater than or equal to 3 here: IVETVCIVWFSFEFVVRCFACPSQ [KCNA4]
OUTPUT: criterion not met

INPUT: Please tell me: is the sequence LQAPFLPPKAPPPVIKIPECPSMG [RHOBTB1] at or over 3 in terms of protein stability index?
OUTPUT: criterion met

INPUT: # check: protein stability index of CSVHYVSDSGDGVYAGRPLSVIQM [FBXO34] is greater than or equal to 3
OUTPUT: criterion not met

INPUT: Given NLARQWNNCAFLESSAKSKINVNE [RAP1B] , state whether its protein stability index is at least 3.
OUTPUT: criterion not met

INPUT: Does PRAAHACATVGNRGFVFGGRYRDA [KLHDC2] have a reported protein stability index of at least 3?
OUTPUT: criterion not met

INPUT: Has GSTMLIEAAKGGHTSVVCYLLDYP [ANKRD17] a recorded protein stability index greater than or equal to 3?
OUTPUT: criterion not met

INPUT: I'd appreciate it if you could say whether RENSSDSPKELKRRNSSSSMSSRL [DLC1] has protein stability index at least equal to 3.
OUTPUT: criterion met

INPUT: Can IYRFLKLHPRGKNNFSPLHLAVDK [FEM1C] be said to have protein stability index at or above 3?
OUTPUT: criterion not met

====

# experimental details: protein stability index of a GFP-peptide fusion (GPS, HEK-293T) (PSI 1-6); higher = more stable
# details: treatment: MLN4924 1 uM, 8 h; c terminus: a fixed tail appended
Decision: protein stability index compared against 4; not below it gives Y, below it gives N.

chain sequence	category label
LEDGQTPLHLSALRDDVLCARMLY [ASB7]	N
VAEAFRALASAQCPQFGIPRKRLK [SPOPL]	N
RVKLEEDPDGEEGSSIPWNHLPDP [ZNF24]	Y
DCLEGKKSKHAPRGTHLWEFIRDI [ELF3]	N
KRWQKNNWPKNSNGVTQKASAPTY [NANOGP8]	N

INPUT: Hi, just wondering whether EHVFDLILELYNIDSHLLLSVLPQ [PDS5B] shows protein stability index of 4 or higher.
OUTPUT: N

INPUT: Given LWSQSYEDSSNQEEEGPSTFPDLE [MAGEA3] , state whether its protein stability index is at least 4.
OUTPUT: Y

INPUT: Identify whether the reported protein stability index of the following sequence is 4 or greater: AEMNRGSNEWKTVVGGAMFFIGFT [COX4I1]
OUTPUT: N

INPUT: Record ERAHKGEKPYGCSECGKAFPRKSE [ZNF649] ; criterion: protein stability index no lower than 4. Met?
OUTPUT: Y

====

# experimental details: protein stability index of a GFP-peptide fusion (GPS, HEK-293T) (PSI 1-6); higher = more stable
# details: treatment: MLN4924 1 uM, 8 h; c terminus: a fixed tail appended
metric: protein stability index
// return just the number, without any unit appended

See these solved cases before continuing.
chain sequence	protein stability index
ATAVGGGFFLLQLANHTGYIKVDW [FUNDC2]	3.08
KVEFTEEEIKTWGTVFQELNKLYP [TPH1]	2.91
APPPRDYTYRDYGHSSSRDDYPSR [RBMX]	4.32
ALVCLLSCLLPSSEAKLYGRCELA [SPACA3]	3.04

INPUT: For the sequence APVPEPPKEEQQQALEQFAAAAAH [EPB41L3] , what protein stability index is on record?
OUTPUT: 5.56

INPUT: Recorded protein stability index of KMSNSFHGIRPPQLEQPEKMPVLK [RHOBTB3] , please.
OUTPUT: 4.34

====

# experimental details: protein stability index of a GFP-peptide fusion (GPS, HEK-293T) (PSI 1-6); higher = more stable
# details: treatment: DMSO; c terminus: a fixed tail appended
metric: protein stability index
Quick one: just the number, no unit, thanks!

INPUT: Please give the measured protein stability index for this sequence: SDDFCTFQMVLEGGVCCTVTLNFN [GFOD1]
OUTPUT: 2.79

INPUT: Param item = QDKPYKCTDCGKSFNHNAHLTVHK [ZNF8] ; retrieve measured protein stability index.
OUTPUT: 3.71

INPUT: // lookup protein stability index for FKTIEELRDKIMATTIDNSRVILE [KRT15]
OUTPUT: 2.54

INPUT: Data request, read-out protein stability index, for GAYDFPSPEWDTVTPEAKNLINQM [CAMK2B]
OUTPUT: 3.76

INPUT: Form field: reported protein stability index of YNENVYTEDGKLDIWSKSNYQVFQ [MED27]
OUTPUT: 2.5
